Method notes: transferrin receptor uptake blockade – imaging, Alexa594-transferrin, dry powder, selectivity assay for SR-BI HDL uptake inhibitor project, dose response (AID 602134)
Assay conditions: mSR-BI cells; series mostly up to 35 µM
Calls of active or inactive are those of the source.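 How the source made its calls: active means falling transferrin uptake with a fitted half-maximal potency at or below twice the top valid tested dose; inconclusive means flat fit with a 30 to 70% drop, or poor fit; inactive means the rest.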
Endpoint: outcome

>>> print(df.to_string())
                                   molecule  endpoint  test_result
0  COCC(=O)N1CCc2cc(-c3csc(NC(=O)c4cc(OC)cc(OC)c4)n3)ccc21   outcome     inactive
1  CCC(=O)N1CCc2cc(-c3csc(NC(=O)c4cccc(OC)c4)n3)ccc21   outcome     inactive
2  C[C@H](C(=O)NC1CCCC1)N(C(=O)Cn1nnc(-c2ccc3c(c2)OCO3)n1)C1CCCCC1   outcome     inactive
3  COc1cc(OC)cc(C(=O)Nc2nc(-c3ccc4c(c3)CCN4C(=O)CN(C)C)cs2)c1   outcome     inactive
4  CCC(=O)N1CC(C)(C)c2cc(-c3csc(NC(=O)c4cc(OC)cc(OC)c4)n3)ccc21   outcome     inactive

Return reported outcome. Input molecule: CCNC(=O)N1CCc2cc(-c3csc(NC(=O)c4cc(OC)cc(OC)c4)n3)ccc21 inactive

Fill in outcome for record COc1ccc(-c2cc(CC(=O)N(C3CCCCC3)C(C)C(=O)NC3CCCC3)no2)cc1OC (stereo not drawn) inactive

For C[C@@H]1CN([C@H](C)CO)C(=O)c2cc(NC(=O)Cc3cn(C)c4ccccc34)ccc2O[C@H]1CN(C)S(=O)(=O)c1ccc(Cl)cc1 , write its outcome. inactive
